Hello, the source for this data is patent US6207683A, in case you need it.

target: histamine H1 -receptors (membranes from bovine cerebellum) (Bos taurus, UniProt P30546)
Construct: membranes from bovine cerebellum; from tissue; host or cells: bovine cerebellum membranes
Sequence (P30546 whole entry): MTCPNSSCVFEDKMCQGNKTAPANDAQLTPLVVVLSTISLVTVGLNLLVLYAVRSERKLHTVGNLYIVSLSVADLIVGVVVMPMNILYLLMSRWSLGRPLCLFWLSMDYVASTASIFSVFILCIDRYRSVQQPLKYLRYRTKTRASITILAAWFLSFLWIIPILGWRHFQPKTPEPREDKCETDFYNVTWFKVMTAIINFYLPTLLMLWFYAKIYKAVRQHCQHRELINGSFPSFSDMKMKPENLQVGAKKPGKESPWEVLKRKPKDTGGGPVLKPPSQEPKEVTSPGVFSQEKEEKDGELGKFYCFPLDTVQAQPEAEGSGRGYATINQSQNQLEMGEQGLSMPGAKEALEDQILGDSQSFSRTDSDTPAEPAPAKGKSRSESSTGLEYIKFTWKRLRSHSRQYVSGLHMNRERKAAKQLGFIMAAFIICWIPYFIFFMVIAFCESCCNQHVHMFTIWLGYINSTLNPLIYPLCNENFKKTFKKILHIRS
assay_procedure: [^3 H]pyrilamine binding assay, histamine H1-receptors
measured_endpoint: IC50
Write your answer as a measured quantity: the number, then the unit.

Report IC50 for O=C1Cc2ccccc2C(=C2CCNCC2)c2ccsc21 [Norketotifen] please. 43.6 nM

----------
System: physostigmine-induced lethality
assay_procedure: Physostigmine-induced lethality test (sedative effects)
Assay type: in vivo
experimental_conditions: survivors of 10 mice 30 min after physostigmine 1.9 mg/kg s.c.; oral treatment 60 min before, mg/kg: Ketotifen 107, Nor-ketotifen 83, Example 2 94, Example 5 108, Astemizole 115
measured_endpoint: Survived

As a guide, the following entries are already answered.
>  <smiles_entry>
O=C1Cc2ccccc2C(=C2CCNCC2)c2ccsc21

>  <Survived>
3/10

$$$$
>  <smiles_entry>
CN1CCC(=C2c3ccccc3CC(=O)c3sccc32)CC1

>  <Survived>
9/10

$$$$
>  <smiles_entry>
O=C1Cc2ccccc2C(=C2CCN(CCO)CC2)c2ccsc21

>  <Survived>
3/10

$$$$
>  <smiles_entry>
COc1ccc(CCN2CCC(Nc3nc4ccccc4n3Cc3ccc(F)cc3)CC2)cc1

>  <Survived>
1/10

$$$$

Kindly consider the entry below.
Report Survived for `O=C(O)COCCN1CCC(=C2c3ccccc3CC(=O)c3sccc32)CC1` please. 0/10

----------
target: histamine H1 -receptors (membranes from bovine cerebellum) (Bos taurus, UniProt P30546)
Construct: membranes from bovine cerebellum; from tissue; host or cells: bovine cerebellum membranes
assay_procedure: [^3 H]pyrilamine binding assay, histamine H1-receptors
experimental_conditions: inhibition of 50% of specific binding of [^3 H]pyrilamine, bovine cerebellum membranes; read-out: IC50
Where a name gives a salt, the structure may show the parent alone.
measured_endpoint: pIC50
Bear in mind: pIC50 is minus log10 of a mol/L concentration; give just that figure.

Report pIC50 for O=C(O)COCCN1CCC(=C2c3ccccc3CC(=O)c3sccc32)CC1 [Example 5] please. 7.16

Report pIC50 for Cc1ccc(/C(=C\CN2CCCC2)c2ccccn2)cc1 [TRIPROLIDINE HCl] please. 7.85

Report pIC50 for OC1Cc2ccccc2C(=C2CCNCC2)c2ccsc21 (stereo not shown) [10-OH-NORKETOTIFEN, 10-OH-norketotifen] please. 6.95

Report pIC50 for O=C1Cc2ccccc2C(=C2CCN(CCO)CC2)c2ccsc21 [Example 2] please. 8.23

----------
target: UniProt F1N5C5
Sequence (F1N5C5 1-460): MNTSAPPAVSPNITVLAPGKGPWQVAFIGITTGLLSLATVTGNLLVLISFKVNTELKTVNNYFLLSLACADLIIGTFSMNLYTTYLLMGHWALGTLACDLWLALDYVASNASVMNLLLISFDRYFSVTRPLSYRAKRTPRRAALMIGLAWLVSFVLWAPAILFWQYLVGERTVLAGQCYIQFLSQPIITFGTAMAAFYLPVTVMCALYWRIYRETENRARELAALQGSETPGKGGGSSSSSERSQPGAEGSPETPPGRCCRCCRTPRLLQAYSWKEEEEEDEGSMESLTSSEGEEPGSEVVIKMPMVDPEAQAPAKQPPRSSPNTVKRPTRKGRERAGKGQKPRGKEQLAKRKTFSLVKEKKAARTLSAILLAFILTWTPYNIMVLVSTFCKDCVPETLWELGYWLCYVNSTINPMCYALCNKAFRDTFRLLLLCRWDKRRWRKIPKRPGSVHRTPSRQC
assay_procedure: biochemical
Assay type: binding
experimental_conditions: inhibition of 50% of specific [^3 H]pirenzepine binding, bovine striatal membranes; read-out: IC50
measured_endpoint: pIC50
Bear in mind: pIC50 is minus log10 of a mol/L concentration; give just that figure.

As a guide, the following entries are already answered.
>  <compound>
O=C1Cc2ccccc2C(=C2CCNCC2)c2ccsc21 [Norketotifen]

>  <target>
UniProt F1N5C5

>  <pIC50>
6.58

$$$$
>  <compound>
O=C(O)COCCN1CCC(=C2c3ccccc3CC(=O)c3sccc32)CC1 [Example 5]

>  <target>
UniProt F1N5C5

>  <pIC50>
6.06

$$$$

Quick check: pIC50 on UniProt F1N5C5, item O=C1Cc2ccccc2C(=C2CCN(CCO)CC2)c2ccsc21 [Example 2] ? 6.63
